I'd be grateful if you could share measured OD value for these entries.
- tgt: T1, human Nectin-4 extracellular antigen hNectin-4-His (human, UniProt Q96NY8 32-349)
- T1 construct: C-terminal 8xHis tag included
- T1 sequence: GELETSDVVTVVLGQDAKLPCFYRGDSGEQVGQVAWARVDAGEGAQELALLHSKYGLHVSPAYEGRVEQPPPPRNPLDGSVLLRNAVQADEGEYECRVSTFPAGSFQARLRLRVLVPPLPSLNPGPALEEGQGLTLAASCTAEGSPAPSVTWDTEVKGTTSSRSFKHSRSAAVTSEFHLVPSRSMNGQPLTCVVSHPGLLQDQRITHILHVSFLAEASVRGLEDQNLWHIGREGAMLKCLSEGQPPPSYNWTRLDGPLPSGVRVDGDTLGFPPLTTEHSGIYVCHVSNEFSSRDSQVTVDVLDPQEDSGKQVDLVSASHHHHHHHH
- protocolNotes: ELISA, phage scFv supernatant 1:50
One number for each entry, in OD.

Worked cases, OD value given:
{"binder": "1G8-1F5 scFv (scFv, V domains shown, phage clone supernatant) VH: EVQLVESGGGLVQPGGSLRLSCAASGDIFDTYMSWVRQAPGKGLEWVSRIYTDGSSDYADSVKGRFTISRDNSKNTLYLQMNSLRAEDTAVYYCARQTEDRSYGYDLDYWGQGTLVTVSS VL: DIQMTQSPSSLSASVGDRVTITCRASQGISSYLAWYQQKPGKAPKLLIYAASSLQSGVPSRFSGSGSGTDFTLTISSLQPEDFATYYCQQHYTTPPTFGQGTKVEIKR", "reportedMetric": "OD value", "unitSymbol": "OD", "numericResult": 1.56}
{"binder": "10F4-2C6 scFv (scFv, V domains shown, phage clone supernatant) VH: EVQLVESGGGLVQPGGSLRLSCAASGFNFGGFDMSWVRQAPGKGLEWVSGIKQYKGYTSYADSVKGRFTISRDNSKNTLYLQMNSLRAEDTAVYYCAREYSDVVDYVSVRTPLDYWGQGTLVTVSS VL: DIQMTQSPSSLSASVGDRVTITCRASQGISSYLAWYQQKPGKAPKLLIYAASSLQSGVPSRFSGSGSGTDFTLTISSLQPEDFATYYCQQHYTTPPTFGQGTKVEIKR", "reportedMetric": "OD value", "unitSymbol": "OD", "numericResult": 1.52}
{"binder": "1G8-1A12 scFv (scFv, V domains shown, phage clone supernatant) VH: EVQLVESGGGLVQPGGSLRLSCAASGGTFDTNAMSWVRQAPGKGLEWVSAISTGGDNKRYADSVKGRFTISRDNSKNTLYLQMNSLRAEDTAVYYCARQTEDRSYGYDLDYWGQGTLVTVSS VL: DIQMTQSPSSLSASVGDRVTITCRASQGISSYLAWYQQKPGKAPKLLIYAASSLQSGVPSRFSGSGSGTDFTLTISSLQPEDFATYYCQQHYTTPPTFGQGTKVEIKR", "reportedMetric": "OD value", "unitSymbol": "OD", "numericResult": 1.61}
{"binder": "10F4-1 scFv (scFv, V domains shown, phage clone supernatant) VH: EVQLVESGGGLVQPGGSLRLSCAASGDSFTNYWMSWVRQAPGKGLEWVSGISQGGSYAYYADSVKGRFTISRDNSKNTLYLQMNSLRAEDTAVYYCAREYSDVVDYVSVRTPLDYWGQGTLVTVSS VL: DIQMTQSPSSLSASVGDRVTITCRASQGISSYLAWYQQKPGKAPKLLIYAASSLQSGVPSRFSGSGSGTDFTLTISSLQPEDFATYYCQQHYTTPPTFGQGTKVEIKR", "reportedMetric": "OD value", "unitSymbol": "OD", "numericResult": 1.39}
{"binder": "1F3-1B1 scFv (scFv, V domains shown, phage clone supernatant) VH: EVQLVESGGGLVQPGGSLRLSCAASGFTFGTYGMSWVRQAPGKGLEWVSGIKPGDSTTYYADSVKGRFTISRDNSKNTLYLQMNSLRAEDTAVYYCARAELLAFDVYTASDYWGQGTLVTVSS VL: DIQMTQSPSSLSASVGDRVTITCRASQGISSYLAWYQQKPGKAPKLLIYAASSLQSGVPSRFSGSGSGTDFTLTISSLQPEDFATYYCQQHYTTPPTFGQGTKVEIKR", "reportedMetric": "OD value", "unitSymbol": "OD", "numericResult": 1.65}

For each listed entry, give its OD value.
1. 1G8-1E12 scFv (scFv, V domains shown, phage clone supernatant) VH: EVQLVESGGGLVQPGGSLRLSCAASGFNFTSYAMSWVRQAPGKGLEWVSRISAHKWDASYADSVKGRFTISRDNSKNTLYLQMNSLRAEDTAVYYCARQTEDRSYGYDLDYWGQGTLVTVSS VL: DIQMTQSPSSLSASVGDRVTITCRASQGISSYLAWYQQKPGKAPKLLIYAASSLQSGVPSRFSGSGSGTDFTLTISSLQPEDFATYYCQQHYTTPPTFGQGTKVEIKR
2. 1F3-2C6 scFv (scFv, V domains shown, phage clone supernatant) VH: EVQLVESGGGLVQPGGSLRLSCAASGDIFTNYSMSWVRQAPGKGLEWVSGIYASGSDKRYADSVKGRFTISRDNSKNTLYLQMNSLRAEDTAVYYCARAELLAFDVYTASDYWGQGTLVTVSS VL: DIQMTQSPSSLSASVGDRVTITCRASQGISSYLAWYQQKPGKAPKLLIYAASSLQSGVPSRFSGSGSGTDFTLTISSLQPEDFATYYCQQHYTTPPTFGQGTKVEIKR
3. 1F3-1F8 scFv (scFv, V domains shown, phage clone supernatant) VH: EVQLVESGGGLVQPGGSLRLSCAASGFNFGNYGMSWVRQAPGKGLEWVSRISGDGSNINYADSVKGRFTISRDNSKNTLYLQMNSLRAEDTAVYYCARAELLAFDVYTASDYWGQGTLVTVSS VL: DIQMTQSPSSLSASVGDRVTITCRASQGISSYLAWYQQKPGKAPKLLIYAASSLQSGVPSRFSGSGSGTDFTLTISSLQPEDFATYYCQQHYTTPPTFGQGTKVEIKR

Result:
1: 1.61; 2: 1.38; 3: 1.67

// each listed binder needs a value for OD value
1. 10F4-2C4 scFv (scFv, V domains shown, phage clone supernatant) VH: EVQLVESGGGLVQPGGSLRLSCAASGYSFGDYWMSWVRQAPGKGLEWVSVIDSGSGNKRYADSVKGRFTISRDNSKNTLYLQMNSLRAEDTAVYYCAREYSDVVDYVSVRTPLDYWGQGTLVTVSS VL: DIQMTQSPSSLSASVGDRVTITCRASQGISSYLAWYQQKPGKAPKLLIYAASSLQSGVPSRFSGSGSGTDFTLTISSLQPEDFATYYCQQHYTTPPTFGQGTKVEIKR
2. 1F3-1G2 scFv (scFv, V domains shown, phage clone supernatant) VH: EVQLVESGGGLVQPGGSLRLSCAASGYTFGDYGMSWVRQAPGKGLEWVSRIDPWGASIRYADSVKGRFTISRDNSKNTLYLQMNSLRAEDTAVYYCARAELLAFDVYTASDYWGQGTLVTVSS VL: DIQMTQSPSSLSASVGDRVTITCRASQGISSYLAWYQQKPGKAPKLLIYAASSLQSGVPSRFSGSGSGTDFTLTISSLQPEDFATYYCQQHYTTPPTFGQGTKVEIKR

Result:
1. 1.53
2. 1.6
